Provenance of the data: ChEMBL document CHEMBL4028851

Experiment: Half life in Sprague-Dawley rat at 5 mg/kg, po via gavage by LC-MS/MS analysis
Type: ADME, organism-based
Details: in vivo
OBSERVABLE: half-life (h)
# value in h; strip the unit string

Which half-life is listed for C=C1C(=O)O[C@H]2c3c(C)c(OCc4ccccc4Br)cc(C)c3CC[C@@H]12 ?
2.86

###

Experiment: Cmax in Sprague-Dawley rat at 5 mg/kg, po via gavage by LC-MS/MS analysis
Type: ADME, organism-based
Design: dose 5 mg/kg, route oral
Conditions: in vivo
OBSERVABLE: Cmax (ng/mL)
# value in ng/mL; strip the unit string

Which Cmax is listed for C=C1C(=O)O[C@H]2c3c(C)c(OCc4ccccc4Br)cc(C)c3CC[C@@H]12 ?
42.2
